Target: Melanocyte-stimulating hormone receptor (Homo sapiens, UniProt Q01726)
Sequence (Q01726 whole entry, looked up): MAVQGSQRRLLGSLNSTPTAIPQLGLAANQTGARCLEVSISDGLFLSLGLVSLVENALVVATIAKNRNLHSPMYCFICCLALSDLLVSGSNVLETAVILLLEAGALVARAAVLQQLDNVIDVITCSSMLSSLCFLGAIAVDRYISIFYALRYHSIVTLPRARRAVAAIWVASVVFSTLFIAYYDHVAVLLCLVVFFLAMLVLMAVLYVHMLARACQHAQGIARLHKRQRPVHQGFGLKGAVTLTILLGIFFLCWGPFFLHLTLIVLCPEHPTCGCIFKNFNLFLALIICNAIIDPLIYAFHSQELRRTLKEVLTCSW
Experiment: Partial agonist activity at C-terminal HA-tagged human MC1-R stably expressed in HEK293 cells co-expressing GScAMP22P cAMP reporter assessed as inhibition of alpha-MSH induced cAMP production by cell based luminescence assay relative to control
Format: functional
Set-up: concentration or dose not given beside the values
Settings: filed as partial agonist, concentration not given here
# inhibition per entry
Entry rule: numbers only, all in %.

Examples with answers:
// query inhibition value for entry CCCC[C@H](NC(C)=O)C(=O)N[C@H]1CC(=O)NCCCC[C@@H](C(N)=O)NC(=O)CNC(=O)[C@H](Cc2c[nH]c3ccccc23)NC(=O)[C@H](CCCN=C(N)N)NC(=O)[C@@H](Cc2ccc3ccccc3c2)NC(=O)[C@@H]2CCCN2C1=O 89.2

Any idea what inhibition was measured for CCCC[C@H](NC(C)=O)C(=O)N[C@H]1CC(=O)NCCCC[C@@H](C(N)=O)NC(=O)CNC(=O)[C@H](Cc2c[nH]c3ccccc23)NC(=O)[C@H](CCCNC(=N)N)NC(=O)[C@@H](Cc2ccc3ccccc3c2)NC(=O)[C@@H]2C[C@H](NC(=O)Cc3ccccc3)CN2C1=O ? 90.1

Dear colleague, I am looking for the recorded inhibition of the following compound: CCCC[C@H](NC(C)=O)C(=O)N[C@H]1CC(=O)NCCCC[C@@H](C(N)=O)NC(=O)CNC(=O)[C@H](Cc2c[nH]c3ccccc23)NC(=O)[C@H](CCCNC(=N)N)NC(=O)[C@@H](Cc2ccc3ccccc3c2)NC(=O)[C@@H]2C[C@H](n3cc(CCN)nn3)CN2C1=O 85.5

Endpoint output: inhibition of CCCC[C@H](NC(C)=O)C(=O)N[C@H]1CC(=O)NCCCC[C@@H](C(N)=O)NC(=O)CNC(=O)[C@H](Cc2c[nH]c3ccccc23)NC(=O)[C@H](CCCNC(=N)N)NC(=O)[C@@H](Cc2ccc3ccccc3c2)NC(=O)[C@@H]2C[C@H](NC(=O)[C@@H](N)CCCN)CN2C1=O . Value? 85.1

If you can, please state the reported inhibition value of CCCC[C@H](NC(C)=O)C(=O)N[C@H]1CC(=O)NCCCC[C@@H](C(N)=O)NC(=O)[C@H](CCCCNC(=N)N)NC(=O)[C@H](Cc2c[nH]c3ccccc23)NC(=O)[C@H](CCCNC(=N)N)NC(=O)[C@@H](Cc2ccc3ccccc3c2)NC(=O)[C@@H]2CCCN2C1=O . 90.6

Below: the item to evaluate.
Consider the compound CCCC[C@H](NC(C)=O)C(=O)N[C@H]1CC(=O)NCCCC[C@@H](C(N)=O)NC(=O)[C@H](CCCCNC(=N)N(CCC)CCC)NC(=O)[C@H](Cc2c[nH]c3ccccc23)NC(=O)[C@H](CCCNC(=N)N)NC(=O)[C@@H](Cc2ccc3ccccc3c2)NC(=O)[C@@H]2CCCN2C1=O and give its measured inhibition. 88.7

###

Catalogue of pIC50 values
Molecular target: UniProt:P41968
Sequence (P41968 whole entry): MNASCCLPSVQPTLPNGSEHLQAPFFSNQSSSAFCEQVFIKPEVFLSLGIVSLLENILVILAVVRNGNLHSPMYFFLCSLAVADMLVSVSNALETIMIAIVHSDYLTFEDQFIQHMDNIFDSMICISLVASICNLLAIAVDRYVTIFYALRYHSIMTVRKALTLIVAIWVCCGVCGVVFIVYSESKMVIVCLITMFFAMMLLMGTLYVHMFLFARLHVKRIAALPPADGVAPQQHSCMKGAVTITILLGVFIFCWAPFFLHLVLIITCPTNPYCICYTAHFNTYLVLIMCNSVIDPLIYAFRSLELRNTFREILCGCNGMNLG
Assay: Antagonist activity at C-terminal HA-tagged human MC3-R stably expressed in HEK293 cells co-expressing GScAMP22P cAMP reporter assessed as inhibition of alpha-MSH induced cAMP production by cell based luminescence assay
Format: functional
Details: read-out: IC50
Quick note: pIC50 values are minus log10 of concentrations in mol/L.

Fill blank: measured pIC50 of the compound CCCCCCc1cn([C@H]2C[C@H]3C(=O)N[C@H](Cc4ccc5ccccc5c4)C(=O)N[C@@H](CCCNC(=N)N)C(=O)N[C@@H](Cc4c[nH]c5ccccc45)C(=O)NCC(=O)N[C@H](C(N)=O)CCCCNC(=O)C[C@H](NC(=O)[C@H](CCCC)NC(C)=O)C(=O)N3C2)nn1 is ____. 7.23

Report pIC50 for CCCC[C@H](NC(C)=O)C(=O)N[C@H]1CC(=O)NCCCC[C@@H](C(N)=O)NC(=O)CNC(=O)[C@H](Cc2c[nH]c3ccccc23)NC(=O)[C@H](CCCNC(=N)N)NC(=O)[C@@H](Cc2ccc3ccccc3c2)NC(=O)[C@@H]2C[C@H](n3cc(CCN)nn3)CN2C1=O please. 7.37

More entries:
Find the recorded pIC50 belonging to CCCC[C@H](NC(C)=O)C(=O)N[C@H]1CC(=O)NCCCC[C@@H](C(N)=O)NC(=O)CNC(=O)[C@H](Cc2c[nH]c3ccccc23)NC(=O)[C@H](CCCNC(=N)N)NC(=O)[C@@H](Cc2ccc3ccccc3c2)NC(=O)[C@@H]2C[C@H](n3cc(-c4ccccn4)nn3)CN2C1=O and report it. 7.50

Data origin, for the record: ChEMBL document CHEMBL5528054
